- TEST NAME: in vitro
- TEST CONTEXT: human, hela cells, % viability
MEASURED METRIC: viability at 28.5 h, 10 µM (%)
Supply the numeric figure in %, leaving out any unit text.

Worked examples follow.
>>> df
                                   molecule  reported_result
0        O=C(O)c1ccc(/C=N/NC(=O)c2ccco2)cc1             90.5
1     O=C(c1cccs1)n1ccc(-c2ccc3c(c2)CCO3)n1             97.6
2  Cc1ccccc1Nc1nc(-c2ccc([N+](=O)[O-])cc2)nc2ccccc12              119
3  O=C1CC(C(=O)Nc2cccc(C(=O)O)c2)C(c2ccccc2)O1 (stereo not drawn)             87.1
4  O=C(NCCc1c[nH]c2ccc(Cl)cc12)c1cc(F)c(Cl)cc1F             93.6

Next molecule, please.
Per the record, `O=S(=O)(Nc1cc(C(F)(F)F)ccc1N1CCOCC1)c1ccc(-c2ccccn2)s1` has viability at 28.5 h, 10 µM of 79.5

---

# viability at 28.5 h, 10 µM values compiled below
- TEST NAME: in vitro
- TEST CONTEXT: human, hela cells, % viability
Returns: string containing the numeric result and its unit.

In [3]: df
Out[3]:
                                   molecule             measured_metric  reported_result
0  Cc1nn(C(C)CC(=O)Nc2ccnn2C(C)C)c(C)c1Cl (stereo not drawn)  viability at 28.5 h, 10 µM            95.8%

// field: viability at 28.5 h, 10 µM; key: `Nn1c(SCCCCSc2nnc(C(F)(F)F)n2N)nnc1C(F)(F)F` ; value = 98.8%

Measured viability at 28.5 h, 10 µM, `COc1ccccc1NC(=N)Nc1nc(CSc2nc3ccccc3s2)cc(=O)[nH]1` : 86%

// `COc1ncc(-c2nc(NC(=O)Cc3cc(F)c(F)c(F)c3)cnc2-c2cccc(C)c2)c(OC)n1` : viability at 28.5 h, 10 µM value = 96.4%

---

Reported viability at 28.5 h, 10 µM values are given for each entry in this list.
- TEST NAME: in vitro
- TEST CONTEXT: human, hela cells, % viability
Provide the reading as a plain figure in %.

                                   compound  reported_result
0  O=C(O)C1CCN(Cc2cnnn2-c2ccccc2F)CC1 [CBK287197]             82.1
1  COc1ccc([N+](=O)[O-])cc1NC(=O)C1C2CCC(C2=C(C)C)C1C(=O)O (stereo not drawn) [CBK263686]             93.2
2  Nc1ncnc(NCCCN2CCOCC2)c1[N+](=O)[O-] [CBK267267]             91.8
3  Cc1ccc(NC(=O)CN2C(=O)S/C(=C\c3ccc4c(c3)n(C)c(=O)n4C)C2=O)cc1 [CBK264501]              112
4     O=C(c1ccno1)N1Cc2ccccc2C1 [CBK200327]               97

Data point: Cc1ccccc1Cc1cccc(C2CCN(CC(=O)Nc3nccs3)CC2)n1 [CBK286089] ; viability at 28.5 h, 10 µM = 97.6

Notebook: CCCOC(=O)c1c(NC(=O)c2cc(-c3ccccc3)nc3ccccc23)sc2c1CCC(C)C2 (stereo not drawn) [CBK262647] , viability at 28.5 h, 10 µM read as 93.9

Measured viability at 28.5 h, 10 µM, Cn1c2ccccc2c2nnc(NCCCCO)nc21 [CBK023366] : 98.8

viability at 28.5 h, 10 µM reported for this compound O=C1CCC(CNS(=O)(=O)c2ccccc2Cl)N1 (stereo not drawn) [CBK304850] : 103

---

viability at 28.5 h, 10 µM values by entry
- TEST NAME: in vitro
- TEST CONTEXT: human, hela cells, % viability
Respond with the bare value in %.

Consider the following illustrative entries.
>>> print(df.to_string())
                                   molecule             measured_metric  reported_result
0  COc1cccc(-c2ccc(C(=O)NCCNC(C)=O)c(N3CCOCC3)n2)c1 [CBK076465]  viability at 28.5 h, 10 µM             86.3
1  Cc1cc(OC(F)(F)F)ccc1NS(=O)(=O)c1ccc(-c2ccon2)s1 [CBK062361]  viability at 28.5 h, 10 µM             86.7
2  O=C(CSc1nnc2ccc(-c3ccccc3)nn12)N1CCCCC1 [CBK287678]  viability at 28.5 h, 10 µM              100
3  CCNC(=O)N1CCN(CCOC(c2ccc(F)cc2)c2ccc(F)cc2)CC1 [CBK024943C]  viability at 28.5 h, 10 µM             95.6
4      O=C(O)CCSc1nnnn1C1CCCCC1 [CBK263052]  viability at 28.5 h, 10 µM             88.9

# molecule N#CCCNS(=O)(=O)c1ccc(OC(F)(F)F)cc1 [CBK043560] ; its viability at 28.5 h, 10 µM = 97.9

Record COc1cccc(CN2CCC3(CC2)c2[nH]c4ccc(OCc5ccccc5)cc4c2CCN3C=O)c1 [CBK040462] , field viability at 28.5 h, 10 µM: 101

Value of measured viability at 28.5 h, 10 µM for the entry Cc1cc(Cl)c(S(=O)(=O)N2CCCC2)cc1OCC(=O)NC1CCCCC1 [CBK266781] : 93.9

Measured viability at 28.5 h, 10 µM of CN(C)Cc1cc(CN(C)C)c(O)c(CCc2ccccc2)n1 [CBK278316C] : 90.9

Recorded viability at 28.5 h, 10 µM (molecule Cn1cnnc1SCC(=O)c1cccc(C(F)(F)F)c1 [CBK067718] ): 93.5

GET /value?item= COC(=O)c1c(NC(=S)Nc2ccn(C)n2)sc2c1CCCCC2 [CBK266888] &field=viability at 28.5 h, 10 µM returns 106

Consider Cc1cnc(CNS(=O)(=O)c2ccc(F)cc2)cn1 [CBK050489] . Its measured viability at 28.5 h, 10 µM is 107

# viability at 28.5 h, 10 µM (molecule: O=S(=O)(NC(c1ccccc1)c1ccccc1)c1ccc(Cl)cc1 [CBK261759] ) is 104

viability at 28.5 h, 10 µM for O=C(NCC1CCCO1)C1CCCN(C(=O)c2cc(-c3ccccn3)[nH]n2)C1 (stereo not drawn) [CBK210893] is 91.7

// viability at 28.5 h, 10 µM value for CCCOc1ccc(S(=O)(=O)NCCN2CCOCC2)c2ccccc12 [CBK269045] : 99.1

Lab book: viability at 28.5 h, 10 µM of COc1ccc(CCNS(=O)(=O)N(C)C)cc1 [CBK264348] noted as 93

Record CC(C)c1nc(C2CCCN(c3ncc(C#N)cc3Cl)C2)no1 (stereo not drawn) [CBK304128] . Reported viability at 28.5 h, 10 µM: 111

// viability at 28.5 h, 10 µM value for O=c1n(-c2ccc(OC(F)(F)F)cc2)ccn1S(=O)(=O)c1ccccc1 [CBK106655] : 95.1

Just so you know, measured viability at 28.5 h, 10 µM for CC(C)(c1ccccc1)c1ccc(OCc2ccc(S(=O)(=O)N3CCOCC3)cc2)cc1 [CBK267407] came out at 96.8

// viability at 28.5 h, 10 µM value for CCOc1ccc(OC(=O)c2ccc3c(c2)OCO3)cc1 [CBK149205] : 92.6

O=C(NC1CC1)[C@H]1CN(Cc2ccccc2)C[C@@H]1C(=O)c1ccccc1 [CBK285264] yielded viability at 28.5 h, 10 µM of 105

Record Cc1cc(C)n(C)c(=O)c1C(=O)NC(C)Cc1ccccn1 (stereo not drawn) [CBK283063] . Reported viability at 28.5 h, 10 µM: 105

---

A collection of compounds and their measured viability at 28.5 h, 10 µM
- TEST NAME: in vitro
- TEST CONTEXT: human, hela cells, % viability
Give just the number in %; leave the unit off.

>>> print(df.to_string())
                                   compound  reported_result
0  COc1ccc(CCC(=O)N2CCCCC2c2ncc(-c3cccc(F)c3)[nH]2)cc1OC (centres unmarked)             90.3
1  O=C(NC(N1CCOCC1)C(Cl)(Cl)Cl)c1ccc(Cl)cc1 (centres unmarked)             94.2
2  Cc1cc(NC(=O)CN2CCC(CSc3ccccc3)C2)no1 (centres unmarked)             92.4
3  Cc1ccc(N(Cc2ccco2)C(=O)c2cccc(S(=O)(=O)N(C)C)c2)cc1             91.6

The record that follows has no viability at 28.5 h, 10 µM shown yet.
Value of measured viability at 28.5 h, 10 µM for the entry `O=C(CSc1nc[nH]n1)c1ccc2c(c1)OCCO2` : 101

Data provenance is paper PMC12040169.
